# Study System: Histamine H3 receptor (Homo sapiens, UniProt Q9Y5N1)
# Sequence (Q9Y5N1 whole entry): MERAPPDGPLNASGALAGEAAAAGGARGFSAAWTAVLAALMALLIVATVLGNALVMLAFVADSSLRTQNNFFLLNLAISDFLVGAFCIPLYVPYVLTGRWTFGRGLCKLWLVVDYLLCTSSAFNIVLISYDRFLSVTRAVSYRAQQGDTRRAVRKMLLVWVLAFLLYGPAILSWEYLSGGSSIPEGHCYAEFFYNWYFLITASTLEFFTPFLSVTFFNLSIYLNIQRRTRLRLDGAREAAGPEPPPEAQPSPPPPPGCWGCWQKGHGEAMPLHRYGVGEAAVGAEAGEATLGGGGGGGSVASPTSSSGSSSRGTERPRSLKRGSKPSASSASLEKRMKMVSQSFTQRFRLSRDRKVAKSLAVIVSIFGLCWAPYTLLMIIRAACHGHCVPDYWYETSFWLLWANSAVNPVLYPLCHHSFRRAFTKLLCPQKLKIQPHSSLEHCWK
# Protocol Details: Activity against human histamine H3 receptor by histamine induced inhibition of forskolin stimulated cAMP accumulation in SK-N-MC cells
# Format: functional, cell-based
# Condition Label: read-out: pA2 (converted)
Observable: Kb (nM)
Lab book: enter the figure in nM, no units written.

INSERT INTO assay_data (structure_as_smiles, observable, value) VALUES
  ('CN(C)CCc1ccc(OCCCN2CCCCC2)cc1', 'Kb', 0.501),
  ('CN(C)CCCOc1ccc(CCN(C)C)cc1', 'Kb', 17),
  ('Brc1cc(CN2CCCCC2)cc(Br)c1OCCCN1CCCCC1', 'Kb', 7.24);

What does the data say about its Kb? Entry: CN(C)CCCOc1ccc(CN2CCCCC2)cc1
9.33

* * *

# Study System: Histamine H3 receptor (Rattus norvegicus, UniProt Q9QYN8)
# Sequence (Q9QYN8 whole entry): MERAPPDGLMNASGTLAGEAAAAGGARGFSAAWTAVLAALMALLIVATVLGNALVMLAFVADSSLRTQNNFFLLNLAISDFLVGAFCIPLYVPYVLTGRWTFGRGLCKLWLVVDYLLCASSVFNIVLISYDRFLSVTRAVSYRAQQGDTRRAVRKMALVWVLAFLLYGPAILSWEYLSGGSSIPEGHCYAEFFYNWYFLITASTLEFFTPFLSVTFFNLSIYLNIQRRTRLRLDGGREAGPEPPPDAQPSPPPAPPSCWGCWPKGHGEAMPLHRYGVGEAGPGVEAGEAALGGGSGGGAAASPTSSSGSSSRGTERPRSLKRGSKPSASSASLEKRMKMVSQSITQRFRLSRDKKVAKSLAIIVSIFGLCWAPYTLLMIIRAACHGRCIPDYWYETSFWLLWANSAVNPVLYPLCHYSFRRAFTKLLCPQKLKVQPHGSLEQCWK
Observable: pKi
Note on pKi: it is the negative log10 of concentration, concentration in mol/L.

INSERT INTO measurements (compound, observable, value) VALUES
  ('CN(C)CCc1ccc(OCCCN2CCCCC2)cc1', 'pKi', 8.30),
  ('CN(C)CCCOc1ccc(CCN(C)C)cc1', 'pKi', 7.05),
  ('CN(C)CCc1ccc(OCCN2CCCCC2)cc1', 'pKi', 7.30);

What does the data say about its pKi? Entry: CN(C)CCCOc1c(Br)cc(CCN(C)C)cc1Br [APLYSAMINE]
6.60

What does the data say about its pKi? Entry: CN(C)CCOc1ccc(CCN(C)C)cc1
6.46

* * *

Measured log10(Ki) accompanies every entry in the list below.
# Study System: Histamine H3 receptor (Homo sapiens)
log10 Ki, nM

These solved cases illustrate the format of a correct answer.
INSERT INTO measurements (structure_as_smiles, study_system, value) VALUES
  ('CN(C)CCc1ccc(OCCN2CCCCC2)cc1', 'Histamine H3 receptor (Homo sapiens)', 1.15),
  ('CCCCN(CCCC)CCCOc1ccc(-c2cn3c(C)cccc3n2)cc1', 'Histamine H3 receptor (Homo sapiens)', 3.60),
  ('CN(C)CCCOc1ccc(CCN(C)C)cc1', 'Histamine H3 receptor (Homo sapiens)', 0.78),
  ('CN(C)CCOc1ccc(CCN(C)C)cc1', 'Histamine H3 receptor (Homo sapiens)', 1.60);

Hi! What's the reported log10(Ki) for CN(C)CCc1ccc(OCCCN2CCCCC2)cc1 on Histamine H3 receptor (Homo sapiens)?
-0.30
